assayedTarget: Nucleotide-binding oligomerization domain-containing protein 1 (Homo sapiens)
testSummary: Antagonist activity at human NOD1 expressed in HEK293 cells assessed as decrease in NF-kappaB activation
Assay type: cell-based
pIC50: −log10 of the molar value.
measuredAttribute: pIC50

CS(=O)(=O)c1ccc2nc(Cl)n(-c3ccc(Cl)c(NS(=O)(=O)c4c(F)cccc4F)c3)c(=O)c2c1
9.10

* * *

pIC50 values for the molecules below.
assayedTarget: Nucleotide-binding oligomerization domain-containing protein 1 (Homo sapiens, UniProt Q9Y239)
Sequence (Q9Y239 whole entry, the tested form may be a part): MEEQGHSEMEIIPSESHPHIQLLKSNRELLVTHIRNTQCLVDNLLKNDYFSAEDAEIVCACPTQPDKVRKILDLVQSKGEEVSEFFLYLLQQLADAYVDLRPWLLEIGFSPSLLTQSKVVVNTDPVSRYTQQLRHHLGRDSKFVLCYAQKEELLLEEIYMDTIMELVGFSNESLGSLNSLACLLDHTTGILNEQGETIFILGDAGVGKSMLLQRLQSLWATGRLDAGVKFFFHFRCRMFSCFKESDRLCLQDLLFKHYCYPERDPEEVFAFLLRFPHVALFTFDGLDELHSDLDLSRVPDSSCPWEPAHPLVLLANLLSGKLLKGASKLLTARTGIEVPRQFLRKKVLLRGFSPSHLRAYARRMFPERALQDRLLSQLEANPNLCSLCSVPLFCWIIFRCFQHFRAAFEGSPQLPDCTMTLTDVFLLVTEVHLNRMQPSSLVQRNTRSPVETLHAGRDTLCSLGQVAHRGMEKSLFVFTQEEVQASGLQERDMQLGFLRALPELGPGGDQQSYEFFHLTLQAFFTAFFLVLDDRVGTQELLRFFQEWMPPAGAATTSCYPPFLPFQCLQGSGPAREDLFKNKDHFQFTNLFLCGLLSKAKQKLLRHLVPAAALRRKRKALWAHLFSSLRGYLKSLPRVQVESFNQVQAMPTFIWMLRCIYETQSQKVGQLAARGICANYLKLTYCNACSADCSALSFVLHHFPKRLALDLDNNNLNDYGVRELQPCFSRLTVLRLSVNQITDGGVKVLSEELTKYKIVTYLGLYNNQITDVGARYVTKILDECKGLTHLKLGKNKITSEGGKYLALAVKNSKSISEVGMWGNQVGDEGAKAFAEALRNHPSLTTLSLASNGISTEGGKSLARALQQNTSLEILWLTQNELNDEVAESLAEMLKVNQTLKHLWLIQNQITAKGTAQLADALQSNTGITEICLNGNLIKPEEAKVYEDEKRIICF
testSummary: Antagonist activity at human NOD1 expressed in HEK-Blue cells assessed as decrease in SEAP secretion incubated for 3 hrs followed by C12-iE-DAP stimulation for 20 hrs by spectrophotometry
Format: cell-based, HEK-Blue hNOD1
pIC50: −log10 of the molar value.
measuredAttribute: pIC50

O=c1c2nc(Cl)ccc2nc(Cl)n1-c1ccc(Cl)c(NS(=O)(=O)c2ccccc2F)c1
7.96
O=c1c2cc(Br)ccc2nc(Cl)n1-c1ccc(Cl)c(NS(=O)(=O)c2ccccc2F)c1
7.74
N#Cc1ccccc1S(=O)(=O)Nc1cc(-n2c(Cl)nc3cnc(Cl)cc3c2=O)ccc1Cl
8.92
O=C(CSc1nc2ccc(Cl)cc2c(=O)n1-c1ccc(Cl)c(NS(=O)(=O)c2ccccc2F)c1)Nc1ccccc1
7.36
CC(C)NC(=O)CSc1nc2ccc(Cl)cc2c(=O)n1-c1ccc(Cl)c(NS(=O)(=O)c2ccccc2F)c1
7.60

* * *

testSummary: Metabolic stability in human hepatocytes assessed as half life at 10 uM measured after 120 mins by LC-MS analysis
Type: ADME, cell-based, Hepatocyte
measuredAttribute: half-life at 10 µM (min)

O=c1c2ccncc2nc(Cl)n1-c1ccc(Cl)c(NS(=O)(=O)c2ccccc2F)c1
11.6

* * *

testSummary: Metabolic stability in human liver microsomes assessed as intrinsic clearance at 1.25 uM preincubated for 5 mins followed by NADPH addition measured upto 120 mins by LC-MS/MS analysis
Format: ADME, Microsome
conditions: time < 125 min, read-out: CLH
microsomal CLint at 1.25 µM values for the molecules below.
measuredAttribute: microsomal CLint at 1.25 µM

O=c1c2cc(Cl)cnc2nc(Cl)n1-c1ccc(Cl)c(NS(=O)(=O)c2ccccc2F)c1
49.4 µL/min/mg
O=c1c2ccncc2nc(Cl)n1-c1ccc(Cl)c(NS(=O)(=O)c2ccccc2F)c1
< 7.4 µL/min/mg
O=c1c2nc(Cl)ccc2nc(Cl)n1-c1ccc(Cl)c(NS(=O)(=O)c2ccccc2F)c1
13.4 µL/min/mg
O=c1c2cc(Cl)ncc2nc(Cl)n1-c1ccc(Cl)c(NS(=O)(=O)c2ccccc2F)c1
12 µL/min/mg

* * *

assayedTarget: Nucleotide-binding oligomerization domain-containing protein 2 (Mus musculus) (UniProt Q8K3Z0)
Sequence (Q8K3Z0 whole entry, the tested form may be a part): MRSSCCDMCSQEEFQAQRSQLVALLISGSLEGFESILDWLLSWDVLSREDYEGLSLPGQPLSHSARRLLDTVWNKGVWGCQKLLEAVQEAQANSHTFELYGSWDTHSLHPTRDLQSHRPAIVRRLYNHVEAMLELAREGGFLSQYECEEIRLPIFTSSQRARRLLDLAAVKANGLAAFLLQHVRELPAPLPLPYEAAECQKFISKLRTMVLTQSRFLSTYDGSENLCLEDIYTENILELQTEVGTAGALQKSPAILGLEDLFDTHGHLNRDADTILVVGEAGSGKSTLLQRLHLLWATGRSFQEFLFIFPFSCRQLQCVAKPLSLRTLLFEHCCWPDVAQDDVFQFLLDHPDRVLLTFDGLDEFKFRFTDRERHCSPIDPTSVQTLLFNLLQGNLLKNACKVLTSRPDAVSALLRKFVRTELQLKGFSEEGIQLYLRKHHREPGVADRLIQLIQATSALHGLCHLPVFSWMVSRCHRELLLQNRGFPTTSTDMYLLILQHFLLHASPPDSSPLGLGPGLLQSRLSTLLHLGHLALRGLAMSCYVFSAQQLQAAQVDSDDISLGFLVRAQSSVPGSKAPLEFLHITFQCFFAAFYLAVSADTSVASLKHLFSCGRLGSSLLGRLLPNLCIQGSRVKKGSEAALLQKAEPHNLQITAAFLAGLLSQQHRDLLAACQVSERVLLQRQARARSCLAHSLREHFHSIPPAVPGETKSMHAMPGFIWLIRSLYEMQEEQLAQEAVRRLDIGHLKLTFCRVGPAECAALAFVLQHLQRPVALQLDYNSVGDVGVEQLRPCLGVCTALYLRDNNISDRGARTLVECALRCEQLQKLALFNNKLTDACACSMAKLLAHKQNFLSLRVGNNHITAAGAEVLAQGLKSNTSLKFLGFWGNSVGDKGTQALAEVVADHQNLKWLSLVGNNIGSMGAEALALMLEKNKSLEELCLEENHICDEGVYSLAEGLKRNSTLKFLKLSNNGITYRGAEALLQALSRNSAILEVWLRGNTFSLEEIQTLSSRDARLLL
testSummary: Inhibition of mouse NOD2 at 1 uM relative to control
measuredAttribute: inhibition

O=c1c2ccncc2nc(Cl)n1-c1ccc(Cl)c(NS(=O)(=O)c2c(F)cccc2F)c1
< 10%
CS(=O)(=O)c1ccc2nc(Cl)n(-c3ccc(Cl)c(NS(=O)(=O)c4c(F)cccc4F)c3)c(=O)c2c1
21.9%
CS(=O)(=O)c1ccc2nc(Cl)n(-c3ccc(Cl)c(NS(=O)(=O)c4ccc5ncsc5c4)c3)c(=O)c2c1
< 10%

* * *

assayedTarget: Nucleotide-binding oligomerization domain-containing protein 1 (Mus musculus, UniProt Q8BHB0)
Sequence (Q8BHB0 whole entry, the tested form may be a part): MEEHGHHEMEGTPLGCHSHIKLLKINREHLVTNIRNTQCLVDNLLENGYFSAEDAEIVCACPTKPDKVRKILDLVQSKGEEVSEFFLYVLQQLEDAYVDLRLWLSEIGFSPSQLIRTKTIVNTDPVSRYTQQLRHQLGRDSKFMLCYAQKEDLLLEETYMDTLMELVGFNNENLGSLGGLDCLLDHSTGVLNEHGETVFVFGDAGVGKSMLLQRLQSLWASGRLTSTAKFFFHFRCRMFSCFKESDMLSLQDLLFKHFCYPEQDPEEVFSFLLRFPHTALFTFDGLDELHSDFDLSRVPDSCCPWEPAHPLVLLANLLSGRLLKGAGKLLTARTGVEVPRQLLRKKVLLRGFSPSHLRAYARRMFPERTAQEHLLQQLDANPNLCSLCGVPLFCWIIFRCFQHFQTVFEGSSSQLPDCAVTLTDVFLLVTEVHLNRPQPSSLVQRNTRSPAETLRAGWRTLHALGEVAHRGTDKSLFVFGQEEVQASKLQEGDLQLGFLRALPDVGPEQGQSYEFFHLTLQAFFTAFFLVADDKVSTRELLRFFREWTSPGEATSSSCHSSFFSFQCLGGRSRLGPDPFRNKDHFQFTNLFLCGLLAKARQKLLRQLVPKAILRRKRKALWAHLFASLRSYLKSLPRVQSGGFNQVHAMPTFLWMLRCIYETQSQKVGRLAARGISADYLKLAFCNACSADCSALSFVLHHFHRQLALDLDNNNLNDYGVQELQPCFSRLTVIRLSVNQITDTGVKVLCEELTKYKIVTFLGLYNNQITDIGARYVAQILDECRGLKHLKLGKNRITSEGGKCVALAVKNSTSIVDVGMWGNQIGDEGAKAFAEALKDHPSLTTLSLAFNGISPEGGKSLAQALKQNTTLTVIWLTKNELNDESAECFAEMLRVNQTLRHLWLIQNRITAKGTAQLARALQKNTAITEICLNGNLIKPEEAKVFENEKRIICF
testSummary: Antagonist activity at mouse NOD1 expressed in HEK-Blue cells assessed as decrease in SEAP secretion incubated for 3 hrs followed by C12-iE-DAP stimulation for 20 hrs by spectrophotometry
Type: cell-based, HEK-Blue mNOD1
measuredAttribute: IC50

O=c1c2nc(Cl)ccc2nc(Cl)n1-c1ccc(Cl)c(NS(=O)(=O)c2ccccc2F)c1
193 nM
O=c1c2cc(Cl)cnc2nc(Cl)n1-c1ccc(Cl)c(NS(=O)(=O)c2ccccc2F)c1
187 nM
CS(=O)(=O)c1ccc2nc(Cl)n(-c3ccc(Cl)c(NS(=O)(=O)c4ccc5ncsc5c4)c3)c(=O)c2c1
58 nM
O=c1c2ccncc2nc(Cl)n1-c1ccc(Cl)c(NS(=O)(=O)c2ccc(F)cc2F)c1
193 nM
O=c1c2cc(OC(F)(F)F)ccc2nc(Cl)n1-c1ccc(Cl)c(NS(=O)(=O)c2c(F)cccc2F)c1
2650 nM
